- System: cellular uptake of 2 in HeLa Kyoto cells
- method_notes: cells
- Assay type: cell-based
- setup_conditions: HeLa; tpre 1 h with inhibitor, removal, tinc 0.5 h with 2 (10 µM)
- Excerpt: With COCs 1 and 2 as cell-penetrating reporters, a fully automated, fluorescent microscopy image-based high-content high-throughput (HCHT)[19] inhibitor screening assay was developed. […] Hindered reporter uptake then causes decrease of fluorescence inside of cells (Fig. 3a). Automated data analysis[19] was established to extract average fluorescence intensity per cell and, at the same time, cell viability from propidium iodide negative nuclei count (Fig. 3 and S3–S6 ^†). […]
Bridge positions count the residues as written; N and C are the ends. Peptide text beside a SMILES is read from it.
# MIC, inhibition of cellular uptake of 2 values compiled below
reported_property: MIC, inhibition of cellular uptake of 2

{"compound": "N[C@H]1CSSC[C@@H](C(=O)N[C@@H](CCC(=O)O)C(=O)O)NC(=O)CNC1=O [compound 19] (H-CGCE-OH; disulfide 1-3)", "result": "> 1000 µM"}
{"compound": "CCN1C(=O)C2SSC1C(=O)N2CC(=O)O (stereo not shown)", "result": "> 20 µM"}
{"compound": "N[C@H]1CSSC[C@@H](C(=O)NCC(=O)O)NC(=O)[C@H](CCC(=O)O)NC1=O [compound 18] (H-CECG-OH; disulfide 1-3)", "result": "300 µM"}
{"compound": "CCN1C(=O)C2SSSSC1C(=O)N2CC(=O)O (stereo not shown)", "result": "> 20 µM"}

* * *

- method_notes: Relative cell viability in HCHT screening (propidium iodide negative nuclei count)
- Format: cell-based
- setup_conditions: human, HeLa; tpre 1 h with inhibitor, removal, tinc 0.5 h with 1 (10 µM); read-out: GI50, concentration causing 50% cell growth inhibition
- Text: With COCs 1 and 2 as cell-penetrating reporters, a fully automated, fluorescent microscopy image-based high-content high-throughput (HCHT)[19] inhibitor screening assay was developed. […] Hindered reporter uptake then causes decrease of fluorescence inside of cells (Fig. 3a). Automated data analysis[19] was established to extract average fluorescence intensity per cell and, at the same time, cell viability from propidium iodide negative nuclei count (Fig. 3 and S3–S6 ^†). […]

{"compound": "O=S1(=O)C[C@H](O)[C@H](O)CS1 [compound 16]", "GI50": "1300 µM"}
{"compound": "O=C(O)C1CS[S+]([O-])C1 (stereo not shown) [compound 23]", "GI50": "> 2000 µM"}
{"compound": "O=C(O)CC[C@H](NC(=O)CN1C(=O)C2SSC1C(=O)N2CCOc1ccccc1)C(=O)O (stereo partly shown) [compound 9]", "GI50": "> 100 µM"}
{"compound": "O=C(O)CC[C@H](NC(=O)CCCCC1CCSS1(=O)=O)C(=O)O (stereo partly shown) [compound 15]", "GI50": "> 500 µM"}
{"compound": "CCN1C(=O)C2SSSSC1C(=O)N2CC(=O)O (stereo not shown) [compound 3]", "GI50": "35 µM"}
{"compound": "O=C(O)CCCCC1CCS[S+]1[O-] (stereo not shown) [compound 27]", "GI50": "> 5000 µM"}
{"compound": "CCN1C(=O)C2SSC1C(=O)N2CC(=O)O (stereo not shown) [compound 4]", "GI50": "12.5 µM"}
{"compound": "CCN1C(=O)C2SSC1C(=O)N2CC(=O)NCC[N+](C)(C)C (stereo not shown) [compound 12]", "GI50": "> 100 µM"}
{"compound": "CNC(=O)[C@H](CS[S+]([O-])C[C@H](NC(=O)OC(C)(C)C)C(=O)NC)NC(=O)OC(C)(C)C (stereo partly shown) [compound 26]", "GI50": "> 1000 µM"}
{"compound": "O=C(O)CN1C(=O)C2SSC1C(=O)N2CCOc1ccccc1 (stereo not shown) [compound 5]", "GI50": "7 µM"}
{"compound": "O[C@@H]1CSSC[C@@H]1O [compound 29]", "GI50": "> 2000 µM"}
{"compound": "O=C(CN1C(=O)C2SSC1C(=O)N2CCOc1ccccc1)NCC(=O)OC[C@H]1OC(O)[C@H](O)[C@@H](O)[C@@H]1O (stereo partly shown) [compound 7]", "GI50": "> 100 µM"}
{"compound": "CS(=O)(=O)c1nc2ccccc2o1 [compound 11]", "GI50": "97 µM"}
{"compound": "O=C(O)CNC(=O)c1ccc2c(c1)S[S+]([O-])S2 (stereo not shown) [compound 24]", "GI50": "> 20 µM"}
{"compound": "COCCOCCOCCNC(=O)c1ccc2c(c1)SSSSS2 [compound 10]", "GI50": "~10 µM"}
{"compound": "O=C(O)C1CSSC1 [compound 28]", "GI50": "> 2000 µM"}
{"compound": "O=C(CN1C(=O)C2SSC1C(=O)N2CCOc1ccccc1)NCCS(=O)(=O)O (stereo not shown) [compound 8]", "GI50": "> 100 µM"}
{"compound": "O=C(O)CNC(=O)c1ccc2c(c1)SSSSS2 [compound 6]", "GI50": "~98 µM"}
{"compound": "CS(=O)(=O)c1nc2ccccc2s1 [compound 21]", "GI50": "> 500 µM"}
